Target: DPP-IV (Homo sapiens)
Construct: an extract of human colon carcinoma cell line Caco-2 is used as the DPP IV source; endogenous in cells; Nonidet-P40 solubilised extract
Sequence (P27487 whole entry): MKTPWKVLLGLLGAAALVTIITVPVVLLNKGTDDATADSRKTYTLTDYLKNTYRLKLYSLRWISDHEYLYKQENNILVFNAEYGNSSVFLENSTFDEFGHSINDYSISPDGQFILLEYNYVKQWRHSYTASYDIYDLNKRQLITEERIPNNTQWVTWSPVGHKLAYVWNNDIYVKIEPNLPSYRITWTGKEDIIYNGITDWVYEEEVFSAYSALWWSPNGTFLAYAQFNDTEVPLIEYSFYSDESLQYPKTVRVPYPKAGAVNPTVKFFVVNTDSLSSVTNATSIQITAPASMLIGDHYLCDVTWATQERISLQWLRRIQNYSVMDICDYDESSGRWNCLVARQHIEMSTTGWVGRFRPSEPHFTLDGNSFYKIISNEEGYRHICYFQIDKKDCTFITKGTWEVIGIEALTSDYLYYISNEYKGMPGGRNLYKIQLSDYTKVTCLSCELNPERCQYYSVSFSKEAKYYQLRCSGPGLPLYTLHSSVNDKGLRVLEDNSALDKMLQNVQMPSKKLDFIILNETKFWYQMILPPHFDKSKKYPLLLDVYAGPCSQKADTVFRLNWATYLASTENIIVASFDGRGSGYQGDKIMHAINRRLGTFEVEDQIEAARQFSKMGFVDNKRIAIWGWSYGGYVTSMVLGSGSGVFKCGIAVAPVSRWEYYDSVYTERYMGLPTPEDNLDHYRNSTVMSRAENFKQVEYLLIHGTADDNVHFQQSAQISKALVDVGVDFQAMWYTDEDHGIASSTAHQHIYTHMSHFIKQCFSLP
Experiment: DPP-IV assay with Caco-2 cell extract as DPP IV source, AFC substrate, fluorescence
Details: extract of human colon carcinoma cell line Caco-2; substrate 100 μM; 60 minutes at ambient temperature; read-out: DPP IV inhibition IC50
Counter-ions that a name gives are not always drawn.
measurement.type: IC50 (nM)

Cn1c(CC(=O)c2ccccc2)nc2nc(N3CCCC(N)C3)n(Cc3ccccc3)c2c1=O (stereo not shown): 157

I. Cc1nc2nc(N3CCCC(N)C3)n(Cc3ccccc3)c2c(=O)n1C (stereo not shown) [1(11), trifluoroacetate]
II. Cn1c(N2CCCCC2)nc2nc(N3CCCC(N)C3)n(Cc3ccccc3)c2c1=O (stereo not shown) [1(7), hydrochloride]
// compare: I vs II , metric IC50, want the smaller Your answer should be the label of the entry you select.
I

* * *

Target: DPP-IV (Homo sapiens)
Construct: an extract of human colon carcinoma cell line Caco-2 is used as the DPP IV source; endogenous in cells; host or cells: Caco-2 (human colon carcinoma), differentiated to induce DPP-IV expression; Nonidet-P40 solubilised extract
Assay: DPP-IV assay with Caco-2 cell extract as DPP IV source, AFC substrate, fluorescence
Type: biochemical
Conditions: extract of human colon carcinoma cell line Caco-2; substrate 100 μM; 60 minutes at ambient temperature; read-out: DPP IV inhibition IC50
Counter-ions that a name gives are not always drawn.
measurement.type: IC50 (nM)

See these solved cases before continuing.
Cn1c(NCc2ccc(F)cc2)nc2nc(N3CCCC(N)C3)n(Cc3ccccc3)c2c1=O (centres unmarked) [1(1), trifluoroacetate]: 24
NC1CCCN(c2nc3nc(SCc4ccccc4)[nH]c(=O)c3n2Cc2ccccc2)C1 (centres unmarked) [1(15), trifluoroacetate]: 58

I. Cn1c(NCCc2ccccc2)nc2nc(N3CCCC(N)C3)n(Cc3ccccc3)c2c1=O (centres unmarked) [1(2), trifluoroacetate]
II. CSc1nc2nc(N3CCCC(N)C3)n(Cc3ccccc3)c2c(=O)[nH]1 (centres unmarked) [1(14), hydrochloride]
III. CC(C)=CCn1c(N2CCCC(N)C2)nc2ncn(Cc3cccc4ccccc34)c(=O)c21 (centres unmarked)
Number of compounds to sort: 3. Sort criterion: IC50, ascending. // respond by listing labels in the order requested
III, I, II

* * *

Biological target: DPP-IV (Homo sapiens)
Construct: an extract of human colon carcinoma cell line Caco-2 is used as the DPP IV source; endogenous in cells; Nonidet-P40 solubilised extract
Test: DPP-IV assay with Caco-2 cell extract as DPP IV source, AFC substrate, fluorescence
Conditions: extract of human colon carcinoma cell line Caco-2; substrate 100 μM; 60 minutes at ambient temperature; read-out: DPP IV inhibition IC50
Structures can show the parent of a compound that is named as a salt.
measurement.type: IC50 (nM)

P. CC(C)=CCn1c(N2CCCC(N)C2)nc2nc(CCc3ccccc3)n(C)c(=O)c21 (stereo not shown) [1(12), trifluoroacetate]
Q. CC(C)Nc1nc2nc(N3CCCC(N)C3)n(Cc3ccccc3)c2c(=O)n1C (stereo not shown) [1(3), trifluoroacetate]
// compare: P vs Q , metric IC50, want the smaller Your answer should be the label of the entry you select.
P
(P: 18 nM, Q: 110 nM)

A. Cn1c(C#N)nc2nc(N3CCCC(N)C3)n(Cc3ccccc3)c2c1=O (stereo not shown) [1(24), trifluoroacetate]
B. CC(C)=CCn1c(N2CCCC(N)C2)nc2nc(C)n(Cc3ccccc3)c(=O)c21 (stereo not shown)
Which has the higher IC50, A or B ? Your answer should be the label of the entry you select.
B
(B: 275 nM, A: 113 nM)

P. CN(C)c1nc2nc(N3CCCC(N)C3)n(Cc3ccccc3)c2c(=O)n1C (stereo not shown) [1(8), trifluoroacetate]
Q. CC(C)=CCn1c(N2CCCC(N)C2)nc2nc(C)n(Cc3cccc4ccccc34)c(=O)c21 (stereo not shown)
Which has the higher IC50, P or Q ? Your answer should be the label of the entry you select.
P

A. COc1ccc(Cn2cnc3nc(N4CCCC(N)C4)n(CC=C(C)C)c3c2=O)c2ccccc12 (stereo not shown)
B. Cn1c(NC2CCCCC2)nc2nc(N3CCCC(N)C3)n(Cc3ccccc3)c2c1=O (stereo not shown) [1(5), trifluoroacetate]
Which has the higher IC50, A or B ? Your answer should be the label of the entry you select.
B
(B: 134 nM, A: 57 nM)
